# System: U-251
# measurement_notes: NCI tumour cell line growth inhibition, 48 h
Activity calls are given as the source filed them. Cut-off read from the data, not from the text of the source: active = GI50 up to about 1.1 µM and inactive = higher.
Form entry, call: pick from T (active), F (inactive)

input: Which outcome was entered for the molecule CCOC(=O)c1cc2c3c(c(C(C)=O)c(O)c2[nH]1)N(CC(C)CC)CC3 (stereo not given) in this test?
output: F

input: Which outcome was entered for the molecule COC(=O)C1OC(Oc2cc(O)c3c(=O)cc(-c4ccc(O)cc4)oc3c2)C(O)C(O)C1O (stereo not given) in this test?
output: F

input: Which outcome was entered for the molecule `COc1ccc(-c2onc(-c3c(C)cc(C)cc3C)c2C2=NCCCN2)cc1` in this test?
output: F

input: Which outcome was entered for the molecule `O=c1[nH]c(=O)n([C@@H]2O[C@H](CO)[C@@H](O)[C@H]2O)cc1F` in this test?
output: T

input: Which outcome was entered for the molecule `C/C(=N/NC(=O)c1ccccc1Nc1ccccc1C(=O)N/N=C(\C)c1ccc(C)cc1)c1ccc(C)cc1` in this test?
output: F

input: Which outcome was entered for the molecule `Cc1ccc(C(=O)O)cc1S(=O)(=O)Nn1cnc2ccc(S(=O)(=O)Nc3ccccc3C(=O)O)cc2c1=O` in this test?
output: F

input: Which outcome was entered for the molecule CC1CCCc2c(-c3ccc(Cl)cc3)nc(N)c(C#N)c21 (stereo not given) in this test?
output: F

input: Which outcome was entered for the molecule `Cc1ccc(/N=N/c2c(O)c3ccccc3[nH]c2=O)c(S(=O)(=O)N(C)C)c1` in this test?
output: F

input: Which outcome was entered for the molecule `C=C1CC2(OC1=O)c1ccccc1C=Cc1ccccc12` in this test?
output: F

input: Which outcome was entered for the molecule `O=C(O)c1cc(NC2=C(Cl)C(=O)c3c(O)ccc(O)c3C2=O)ccc1O` in this test?
output: F

input: Which outcome was entered for the molecule CCOC(=O)C(CC(C)C)NC(=O)CSc1nnc(COc2ccc(Cl)cc2)n1-c1ccccc1 (stereo not given) in this test?
output: F

input: Which outcome was entered for the molecule `Cc1nc2c(O)cc3c4c(n(Cc5ccccc5)c3c2nc1C)C(=O)CCC4` in this test?
output: F

input: Which outcome was entered for the molecule `CC1(C)N=c2c(ncn2-c2ccccc2)=C(C(N)=O)N1` in this test?
output: F

input: Which outcome was entered for the molecule `c1cc(CNCCN2CCNCC2)ccn1` in this test?
output: F

input: Which outcome was entered for the molecule `COc1ccc2c(c1)c1c3n2CCNN=C3CCC1` in this test?
output: F

input: Which outcome was entered for the molecule `C[C@]12C=CC(=O)C=C1CC[C@@H]1[C@@H]2C(=O)C[C@@]2(C)[C@H]1CC[C@]2(O)C(=O)CO` in this test?
output: F

input: Which outcome was entered for the molecule CC1S/C(=N\N=C2/C(=O)Nc3ccc(Br)cc32)N(C2CCCCC2)C1=O (stereo not given) in this test?
output: F

input: Which outcome was entered for the molecule `CC1=C(C#N)C(=O)N(/N=C/c2ccc(Cl)cc2)C(=O)/C1=c1\o/c(=C2/C(=O)N(/N=C/c3ccc(Cl)cc3)C(=O)C(C#N)=C2C)c2nccnc12` in this test?
output: F

input: Which outcome was entered for the molecule `COc1ccc2nc(N/N=C/c3sccc3C)cc(C)c2c1` in this test?
output: F

input: Which outcome was entered for the molecule CCNC1C2(CCCCC2)NC(=O)C12CCCCC2 (stereo not given) in this test?
output: F

input: Which outcome was entered for the molecule `O=C1c2ccccc2CN1c1ccc(OCCN2CCCCC2)cc1` in this test?
output: F

input: Which outcome was entered for the molecule `Brc1ccc2[nH]cc([C@H]3CN[C@@H](c4c[nH]c5ccc(Br)cc45)CN3)c2c1` in this test?
output: F

input: Which outcome was entered for the molecule CC(C)c1ccc2c(c1)CCC1C(C)(CN)CCCC21C (stereo not given) in this test?
output: F

input: Which outcome was entered for the molecule COc1cc(C(C#N)NNC(=O)c2ccccc2O)ccc1O (stereo not given) in this test?
output: T

input: Which outcome was entered for the molecule `COc1ccccc1/C=C/c1nc2ccccc2o1` in this test?
output: F

input: Which outcome was entered for the molecule `C(#Cc1ccccc1)SC1=C(c2ccccc2)S/C(=C(\SC#Cc2ccccc2)c2ccccc2)S1` in this test?
output: F

input: Which outcome was entered for the molecule O=C(NC1C2CC3CC(C2)CC1C3)c1cc(/C=C/c2ccccc2)nc(S)n1 (stereo not given) in this test?
output: F

input: Which outcome was entered for the molecule `Nc1ncnc2c1ncn2C=C=CCO` in this test?
output: F

input: Which outcome was entered for the molecule `O=C1NC2(CCN(CCc3ccccc3)CC2)Oc2ccccc21` in this test?
output: F

input: Which outcome was entered for the molecule `CCN(CC)CCn1nc(N)c2nc3ccccc3nc21` in this test?
output: F

input: Which outcome was entered for the molecule CC1C2CC(CC2(C)O)C1(C)C (stereo not given) in this test?
output: F

input: Which outcome was entered for the molecule `[N-]=[N+]=Nc1ccc(CCN2CCN(c3cccc(C(F)(F)F)c3)CC2)cc1I` in this test?
output: F

input: Which outcome was entered for the molecule `O=C(CC(=O)Nc1ccc(Cl)cc1)NNCC(=O)Nc1nc(-c2ccccc2)cs1` in this test?
output: F

input: Which outcome was entered for the molecule `COc1ccccc1/N=N/C(C(=O)c1ccccc1)C(=O)c1ccccc1` in this test?
output: F

input: Which outcome was entered for the molecule `CC(C)(C)C1(COC(=O)c2ccc(N)cc2)COC1` in this test?
output: F
